activation at 10 µM by entry:
target-system: human Edg-1 receptor (Homo sapiens)
Construct: FLAG (N); expressed in transfected cells; membrane preparation
Sequence (P21453 whole entry): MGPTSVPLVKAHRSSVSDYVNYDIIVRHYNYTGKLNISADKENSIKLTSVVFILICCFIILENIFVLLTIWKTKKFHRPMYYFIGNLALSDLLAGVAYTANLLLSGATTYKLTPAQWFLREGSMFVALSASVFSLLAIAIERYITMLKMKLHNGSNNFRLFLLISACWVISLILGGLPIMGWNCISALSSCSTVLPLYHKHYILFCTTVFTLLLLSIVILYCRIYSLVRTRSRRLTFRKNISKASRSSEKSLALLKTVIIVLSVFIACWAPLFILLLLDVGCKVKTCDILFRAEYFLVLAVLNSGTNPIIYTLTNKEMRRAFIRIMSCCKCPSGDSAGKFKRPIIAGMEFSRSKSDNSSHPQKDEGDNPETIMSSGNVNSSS
method-summary: GTP-γ-S assay using human Edg-1 receptors (SPA, CHO Flp-In cell membrane preparation)
Format: biochemical
measurement-setup: test compound at 10 μM; high control 10 μM S1P regarded as 100% activation; background-corrected; triplicate; read-out: % Activation (Edg-1 receptor activation in percent of the activation by 10 μM S1P)
readout-type: activation at 10 µM (%)

                               entry_smiles         readout_type  scale_unit  measured_number
0  CCCOc1nc(Oc2ccc(C)cc2OC)nc2oc(-c3cccc(C)c3)nc12  activation at 10 µM           %                1
1  CCCOc1nc(Oc2c(C)cccc2C)nc2oc(-c3cccc(C)c3)nc12  activation at 10 µM           %              129
2  C=CCCCOc1nc(OCCC)c2nc(-c3cccc(C)c3)oc2n1  activation at 10 µM           %               87
3  CCCOc1nc(Oc2ccccc2F)nc2oc(-c3cccnc3)nc12  activation at 10 µM           %              129
